TEST SYSTEM: Human cGAS amino acids 155-522 (Homo sapiens (Human))
Sequence (Q8N884 157-522): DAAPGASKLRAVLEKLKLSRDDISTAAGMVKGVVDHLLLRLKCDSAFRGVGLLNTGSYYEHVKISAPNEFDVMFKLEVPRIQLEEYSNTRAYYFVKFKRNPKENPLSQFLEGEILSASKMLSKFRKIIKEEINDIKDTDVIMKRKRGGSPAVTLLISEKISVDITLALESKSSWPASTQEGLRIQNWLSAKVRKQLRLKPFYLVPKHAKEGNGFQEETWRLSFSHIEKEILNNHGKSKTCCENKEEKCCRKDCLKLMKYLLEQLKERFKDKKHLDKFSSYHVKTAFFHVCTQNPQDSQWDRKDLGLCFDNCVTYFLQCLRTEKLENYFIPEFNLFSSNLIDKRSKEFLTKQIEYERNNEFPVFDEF
PROTOCOL DESCRIPTION: cGAS biochemical activity assay (ATP remaining, Kinase-Glo Max luminescence)
CONDITION SUMMARY: human cGAS 155-522, ATP remaining (Kinase-Glo Max); read-out: cGAS IC50
The entries below come with measured IC50 values attached.

Guide cases for IC50, answers given:
> print(dat)
                                   compound                               test.system  property.measured   result
1  Cc1[nH]c2c(-c3ccccc3)c(C#N)nn2c(=O)c1-c1nc2ccccc2o1  Human cGAS amino acids 155-522 (Homo sapiens (Human))               IC50  < 20 µM
2  Cc1[nH]c2c(-c3ccccc3)c(C(F)(F)F)nn2c(=O)c1-c1nc2c(=O)[nH]ccc2o1  Human cGAS amino acids 155-522 (Homo sapiens (Human))               IC50  < 20 µM
3  COc1cccc2oc(-c3c(-c4cn[nH]c4)[nH]c4c(-c5ccccc5)c(C(F)(F)F)nn4c3=O)nc12  Human cGAS amino acids 155-522 (Homo sapiens (Human))               IC50  < 20 µM
4  COC1CCCCC1NC(=O)c1c(C)[nH]c2c(-c3ccccc3)c(C(F)(F)F)nn2c1=O (single isomer, unassigned) [Compound A1089]  Human cGAS amino acids 155-522 (Homo sapiens (Human))               IC50  < 20 µM
5  Cc1[nH]c2c(-c3ccccc3)c(C(F)(F)F)nn2c(=O)c1C(=O)Nc1ccccc1S(C)(=O)=O  Human cGAS amino acids 155-522 (Homo sapiens (Human))               IC50  < 20 µM

IC50 reported for this compound `Cc1[nH]c2c(-c3ccccc3)c(C(F)(F)F)nn2c(=O)c1-c1nc2ccccc2n1CC(F)(F)F` : 20 to 250 µM

compound `Cc1[nH]c2c(-c3ccccc3)c(C(F)(F)F)nn2c(=O)c1C(=O)Nc1ccc(S(C)(=O)=O)nc1` , IC50 observed: 20 to 250 µM

Where do the numbers come from? From patent US10738056B2.
